System: U937 cells
Assay: U937 cell growth (proliferation) assay
Assay type: cell-based
Details: DFCS 5% v/v, peptide 0.03 mol/mol cholesterol oleate, 72 hours, range of cholesterol concentrations
Protocol: U937 stock cultures were grown at 37° C. in RPMI 1640 media supplemented glutamine (10 mM), gentamicin (50 μg/ml), fungizone (0.5 μg/ml) and 10% (v/v) foetal calf serum (FCS). […] All growth assays were conducted over 72 hours in 24 well plates unless otherwise indicated. […] After 72 hours an aliquot of each well was diluted with PBS and the number of cells present determined in triplicate by Coulter Counter. […]
No end group written: not given here. lipid anchor = not defined here
Endpoint label: Growth of U937 cells induced by different nLDL preparations (FIG. 4)

Peptide E: random, non Apo B binding region sequence based on the amino acids of the previous peptides (FIG. 7) (TGKRYRLKTLRTLKKTSLLEAA; ()..() Synthesised peptide analogue of the Apo B 100 binding site); least effective
Peptide A: eleven amino acids Apo B binding site peptide with both C and N terminal lipid anchors (FIG. 7) ({lipid anchor}-LRLTRKRGLKL; not fully specified (C-terminus); reading uncertain; also: C-terminal lipid anchor); least effective

Hello, the source for this data is patent US6670452B2, in case you need it.
